Tested on: NCI-H460 lung
ASSAY: NCI-60 one-dose screen, 48 h
CONDITIONS: 10 µM unless noted
Compounds without any hit were thinned out: in the full panel of roughly 83,000, 20% have a hit. Active and inactive are the calls of the source. The calls were made as follows: active = growth percent below 10; inactive = the rest.
Return exactly one item of T (active), F (inactive)

# input Please let me know the test result on file for `C#C[C@]1(O)CC[C@H]2[C@@H]3CC=C4c5sc(N=C(N)N)nc5CC[C@]4(C)[C@H]3CC[C@@]21C` .
# output T

# input What would you report for C=C1c2c(C)nn(-c3ccc(O)cc3)c2N(C)C23C[C@@H]1C1(C)c4c(C)nn(-c5ccc(O)cc5)c4N(C)C(C)(C[C@H]12)C3 (stereo partly drawn) ?
# output F

# input Input `CN1CCN(c2ccc3nc(/N=C/c4ccc5sc(-c6ccc([N+](=O)[O-])cc6)nc5c4)sc3c2)CC1`
# output F

# input Follow-up item: `C=CC(=O)N[C@@H](Cc1ccc(-c2cc(Cl)cc(Cl)c2)cc1)[C@@H](O)[C@H](O)C(=O)O`
# output F

# input Again, but for `CCCN1CCN(c2ccc3nc(-c4ccc5nc(-c6cc(OC)c(OC)c(OC)c6)[nH]c5c4)[nH]c3c2)CC1`
# output F

# input // next record `CCNCCNc1cc(-c2ccc(C(F)(F)F)cc2)c(C#N)c2nc3cc(Cl)c(Cl)cc3n12`
# output T

# input Next molecule up: `COc1ccc(NC(=O)c2cccc(-c3cc(=O)c4c(O)c(OC)c(OC)cc4o3)c2)cc1`
# output F

# input Item: O=C1CSC(c2ccccc2)N1c1ccccc1 (stereo not drawn)
# output F

Where do these numbers come from? They come from PubChem BioAssay (NCI).
